Biological target: AgIR75k (Anopheles coluzzii, UniProt A0A6E8VT06)
Construct: with AgIr8a (co-receptor)
Sequence (A0A6E8VT06 26-675): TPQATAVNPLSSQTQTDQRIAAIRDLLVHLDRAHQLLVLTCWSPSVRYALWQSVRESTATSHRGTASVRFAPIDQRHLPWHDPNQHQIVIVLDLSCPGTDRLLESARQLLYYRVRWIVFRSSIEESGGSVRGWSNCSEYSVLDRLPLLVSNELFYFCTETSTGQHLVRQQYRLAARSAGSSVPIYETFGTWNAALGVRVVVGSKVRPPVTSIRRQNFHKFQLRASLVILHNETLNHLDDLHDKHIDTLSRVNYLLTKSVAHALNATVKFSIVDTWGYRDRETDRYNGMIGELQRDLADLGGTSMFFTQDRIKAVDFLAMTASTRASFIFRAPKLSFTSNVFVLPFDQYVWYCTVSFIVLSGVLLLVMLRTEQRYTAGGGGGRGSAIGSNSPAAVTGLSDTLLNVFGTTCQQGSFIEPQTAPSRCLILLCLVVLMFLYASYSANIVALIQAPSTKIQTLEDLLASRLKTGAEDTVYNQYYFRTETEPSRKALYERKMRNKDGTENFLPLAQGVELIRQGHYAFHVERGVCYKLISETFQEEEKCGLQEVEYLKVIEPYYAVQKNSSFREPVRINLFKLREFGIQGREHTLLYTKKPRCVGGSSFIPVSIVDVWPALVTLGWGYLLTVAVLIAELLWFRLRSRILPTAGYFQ
Sequence (A0A6E8W0A6 1-828 partner): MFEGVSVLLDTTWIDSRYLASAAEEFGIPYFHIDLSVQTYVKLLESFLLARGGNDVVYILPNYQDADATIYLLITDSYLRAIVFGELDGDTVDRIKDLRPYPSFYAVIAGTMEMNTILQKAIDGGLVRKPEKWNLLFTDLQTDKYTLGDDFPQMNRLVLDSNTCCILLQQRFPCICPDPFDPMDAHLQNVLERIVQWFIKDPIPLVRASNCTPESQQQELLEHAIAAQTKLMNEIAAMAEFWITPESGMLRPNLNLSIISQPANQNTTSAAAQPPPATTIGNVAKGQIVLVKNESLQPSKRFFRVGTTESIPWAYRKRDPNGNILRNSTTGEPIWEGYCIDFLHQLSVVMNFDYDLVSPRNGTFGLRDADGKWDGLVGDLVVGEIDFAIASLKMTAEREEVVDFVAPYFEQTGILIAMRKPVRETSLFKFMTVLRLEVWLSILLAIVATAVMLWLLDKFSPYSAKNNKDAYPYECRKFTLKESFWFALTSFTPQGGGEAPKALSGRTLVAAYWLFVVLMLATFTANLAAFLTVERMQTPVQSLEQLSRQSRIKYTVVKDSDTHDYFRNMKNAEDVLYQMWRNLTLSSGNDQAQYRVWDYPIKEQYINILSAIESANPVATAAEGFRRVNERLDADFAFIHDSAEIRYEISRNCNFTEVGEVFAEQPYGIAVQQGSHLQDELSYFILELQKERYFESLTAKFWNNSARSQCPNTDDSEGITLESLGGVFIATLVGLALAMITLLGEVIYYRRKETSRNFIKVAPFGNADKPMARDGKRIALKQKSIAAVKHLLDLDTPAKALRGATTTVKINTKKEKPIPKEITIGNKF
Assay: two-electrode voltage clamp, Xenopus oocytes, concentration-response
pEC50: −log10 of the molar value.

molecule | measured-target | pEC50
CCCCCCCCC(=O)O [nonanoic acid] | AgIR75k (Anopheles coluzzii, UniProt A0A6E8VT06) | 4.46
